- targetSystem: mouse BK channel (mSlo) (Mus musculus)
- Sequence (Q08460 whole entry): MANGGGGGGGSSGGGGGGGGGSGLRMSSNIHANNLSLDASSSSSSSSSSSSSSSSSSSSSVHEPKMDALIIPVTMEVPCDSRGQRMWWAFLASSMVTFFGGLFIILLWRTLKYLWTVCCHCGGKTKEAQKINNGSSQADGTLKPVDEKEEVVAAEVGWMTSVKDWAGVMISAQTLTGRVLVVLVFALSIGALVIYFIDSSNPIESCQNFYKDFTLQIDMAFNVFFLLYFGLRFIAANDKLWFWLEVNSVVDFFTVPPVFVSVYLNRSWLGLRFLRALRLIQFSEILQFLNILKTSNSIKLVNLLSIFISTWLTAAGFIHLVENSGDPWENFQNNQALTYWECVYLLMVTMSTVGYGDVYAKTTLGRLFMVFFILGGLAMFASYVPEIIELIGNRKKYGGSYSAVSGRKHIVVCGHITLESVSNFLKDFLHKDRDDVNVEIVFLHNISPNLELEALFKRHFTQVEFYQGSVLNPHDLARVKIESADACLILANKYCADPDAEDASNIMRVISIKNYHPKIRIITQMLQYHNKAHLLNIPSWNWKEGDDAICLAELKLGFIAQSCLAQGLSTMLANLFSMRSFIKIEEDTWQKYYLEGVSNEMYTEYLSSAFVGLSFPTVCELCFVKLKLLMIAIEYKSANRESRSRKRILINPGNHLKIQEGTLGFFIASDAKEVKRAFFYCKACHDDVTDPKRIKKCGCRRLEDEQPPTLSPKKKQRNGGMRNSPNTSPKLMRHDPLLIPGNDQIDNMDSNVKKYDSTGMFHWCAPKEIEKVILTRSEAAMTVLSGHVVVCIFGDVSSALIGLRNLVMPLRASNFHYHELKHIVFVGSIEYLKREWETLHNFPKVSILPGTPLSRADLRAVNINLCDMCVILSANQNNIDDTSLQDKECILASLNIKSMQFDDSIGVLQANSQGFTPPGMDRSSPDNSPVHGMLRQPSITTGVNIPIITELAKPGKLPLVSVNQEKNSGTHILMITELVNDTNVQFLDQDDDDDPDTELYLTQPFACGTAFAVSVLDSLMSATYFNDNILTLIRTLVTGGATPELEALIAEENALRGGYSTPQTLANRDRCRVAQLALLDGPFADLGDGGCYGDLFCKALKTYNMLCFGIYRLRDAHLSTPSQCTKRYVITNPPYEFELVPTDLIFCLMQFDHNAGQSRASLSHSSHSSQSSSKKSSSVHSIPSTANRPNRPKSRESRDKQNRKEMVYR
reportedMetric: pKd
Just the number, please; pKd means minus log10 of the concentration in mol/L.

// query Query (compound): CCCC[N+](CCCC)(CCCC)CCCC ; field requested: pKd
// result 3.20

Where these numbers come from: paper PMC2151567
